apparent KD of MS2 coat protein: recorded values
# Test system: MS2 coat protein
# PROTOCOL_DESCRIPTION: apparent KD of MS2 coat protein; designed switch direction (-1 OFF switch, 1 ON switch): -1; higher = weaker reporter binding
# PROTOCOL_CONDITIONS: input ligand: FMN 200 uM
Quick reminder: number only, in nM, skip the unit.

Worked cases, answers included:
>  <SEQUENCE_TEXT>
GCAUUUGUAGGAUAUACAUGAGGAUCACCCAUGUCGAGACGUGCAAGGCUUCCCAACUGUAGAAGGACGCGGCC [Eternabot (L1) Solution 61] (Eterna round: R97, puzzle: Exclusion 3)

>  <SYSTEM>
MS2 coat protein

>  <apparent KD of MS2 coat protein, nM>
30.8

$$$$
>  <SEQUENCE_TEXT>
CCAACUAAUUAGGAUAUUAAGGACAUCAGUAAGUAAGAAGGGAUUACAUGAGGAUCACCCAUGUGGUCCUCGGG [Eternabot (L2) Solution 57] (Eterna round: R97, puzzle: Exclusion 6)

>  <SYSTEM>
MS2 coat protein

>  <apparent KD of MS2 coat protein, nM>
226

$$$$

Next:
// query Quick one: apparent KD of MS2 coat protein of CACCGUUACAGAGGAUAUGGCACAUGAGGAUCACCCAUGUAAUAAAUGAGAAUUUCGGAUGUAUUCCAGAAGGCUGUAACCGGC [Ostricism 68 - Jieux - Exclusion NG 2] (Eterna round: R96, puzzle: Exclusion NG 2) ?
// result 41.2

###

# Test system: K4 kissing-loop RNA reporter;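 also: bound reporter read as fluorescence of individual clusters on recovered sequencing chips by microscopy, with normalized cluster intensities fitted with a binding model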
# PROTOCOL_DESCRIPTION: apparent KD of K4 kissing-loop reporter; higher = weaker reporter binding
# PROTOCOL_CONDITIONS: Eterna round: R107; input ligand: none
apparent KD of K4 kissing-loop reporter: recorded values
Quick reminder: number only, in nM, skip the unit.

Worked cases, answers included:
>  <SEQUENCE_TEXT>
CGAGUGAUGUUCGAAGAGUUGUUGAGCGAUACCAGCCAGGAAACUGGCCCUUGGCAGCGUAAUAAAUAAAUAAAUAAAUGAUCAC [whbob_Ex_Theo_A_th61]

>  <apparent KD of K4 kissing-loop reporter / nM>
410

$$$$
>  <SEQUENCE_TEXT>
CGUUUAUAGCAGGAUACCAGUACCCAUAAAGUACGUUAAUAGUAGAGUGAUGUUCUAAAGUACCCUUGGCAGCUUCCCGUGACCC [ExTheophylB.W]

>  <apparent KD of K4 kissing-loop reporter / nM>
133

$$$$
>  <SEQUENCE_TEXT>
GGGUGGCAGGCGGCCGCCACUCUUAGCAGCCAGUGAGUGAUGUUCGUGGCGGAAGAAUGUUCGUAGAGGACCGGGUUUGUUGUUC [Same State Tryptophan B GF 21]

>  <apparent KD of K4 kissing-loop reporter / nM>
257

$$$$
>  <SEQUENCE_TEXT>
GGAGUUACCUGGGAUACCAGUCGGAGUCUCAGAGCACGGAGUGAUGUUCUGGGAUGUUUCGGCCCUUGGCAGCUCUGGGACUCCA [#2 Exclusion - Theophylline B Attempt #15 (HarryS)]

>  <apparent KD of K4 kissing-loop reporter / nM>
268

$$$$
>  <SEQUENCE_TEXT>
CCAUCGCUAUUCGAUACCAGCUACUUAGUGAUGUUAAGUUUAAAUCCACUGUAGGUGGAAAGCCCUUGGCAGCGAAUAGUGAUGG [Theophylline B K4 24]

>  <apparent KD of K4 kissing-loop reporter / nM>
306

$$$$
>  <SEQUENCE_TEXT>
AAUUGAGUGACGGCCGCCACUAGAGUGAUUUUUUUGUUUGAGUGAUGUUUUGAUGUUUGAUUUUGUAGGACCGGGUUGAGUGAUG [qqxzmullin]

>  <apparent KD of K4 kissing-loop reporter / nM>
357

$$$$
>  <SEQUENCE_TEXT>
GGUGUUGUUUGUGCUGUUUUCCUCGUUUCUCGAGGACCGGUACGGCCGCCACUCGAGUGAUGUUUGGGUAGCGAUCCUUGUUAGU [Bdazzled - #6 Exc. Tryptophan A]

>  <apparent KD of K4 kissing-loop reporter / nM>
313

$$$$
>  <SEQUENCE_TEXT>
UAGAGAUCGAGAAGGAGCGAGAAAGCUAGUACAUAUGUACUAGCAAAGCAGUGAUGUUGCACUCAGGUAGGUCGCUCGAUCUCAU [AK1.1 SS Arginine B]

>  <apparent KD of K4 kissing-loop reporter / nM>
366

$$$$
>  <SEQUENCE_TEXT>
AAAUAAAGCAGUCACCCAGUGAUGUUGGAAGGAGCGUGCGAAAGCACAGGUAGGUCGCCGAUAAAGGACAAAGUCCGUGGCUGCA [#SwitchBubble 29 #K4Early]

>  <apparent KD of K4 kissing-loop reporter / nM>
253

$$$$
>  <SEQUENCE_TEXT>
GGAUUUGAGUGAUGUUUAAAACGAGUGUCCAAGGAUAUUGCCCAAACAAGAAGGUGGGCAUGCUUUUGCGAUAAUCAACGGAGAC [theeternabot_exclusion_KL_FMN_A_9]

>  <apparent KD of K4 kissing-loop reporter / nM>
451

$$$$

Next:
// query Quick one: apparent KD of K4 kissing-loop reporter of GCCAGGCAUCUGCAGAGUGAUGUUCAAAAGCGAGGACCGGUACGGCCGCCACUCGAAAGCAGAUGCCUGGGCGUACAAAGUACGC [idea] ?
// result 984

Numbers sourced from the supplement of paper PMC9170038.
